assay: Stability in human hepatocytes; format: in vitro ADME; settings: t1/2, Human Hepatocytes, Diastereoisomer A
Listing of recorded half-life at 5 µM by entry.
Your answer should be a plain number; it is taken to be in min.

Here's what some known entries look like.
Data request: Name the reported half-life at 5 µM value associated with the molecule COC(=O)CCNC(=O)[C@@H]1OP(=O)(N[C@@H](Cc2ccc(OC(C)(C)C)cc2)C(=O)OC(C)(C)C)OCC1(C)C (stereo partly drawn)
Data returned: 18.6

Data request: Another molecule to look at: CC(C)(C)C(=O)OCO[P@@]1(=O)OCC(C)(C)[C@H](C(=O)NCCC(=O)OCCS(C)(=O)=O)O1 (single isomer, unassigned)
Data returned: 26.4

Data request: Another molecule to look at: COC(=O)CCNC(=O)[C@@H]1OP(=O)(N[C@@H](C)C(=O)OCc2ccccc2)OCC1(C)C (stereo partly drawn)
Data returned: 27.6

Data request: Another molecule to look at: COC(=O)CCNC(=O)[C@@H]1OP(=O)(OCOC(=O)c2ccc(CN3CCCC3)cc2)OCC1(C)C (stereo partly drawn)
Data returned: 31.2

Further cases:
Data request: Name the reported half-life at 5 µM value associated with the molecule COC(=O)[C@H](C)NP1(=O)OCC(C)(C)[C@H](C(=O)NCCC(=O)OCCN2CCCC2)O1 (stereo partly drawn)
Data returned: 75.6

Ref: patent US10364263B2
